# Test system: T1, IL10Rα/IL2Rγ receptor (human) (UniProt Q13651)
# T1 sequence (looked up) 1: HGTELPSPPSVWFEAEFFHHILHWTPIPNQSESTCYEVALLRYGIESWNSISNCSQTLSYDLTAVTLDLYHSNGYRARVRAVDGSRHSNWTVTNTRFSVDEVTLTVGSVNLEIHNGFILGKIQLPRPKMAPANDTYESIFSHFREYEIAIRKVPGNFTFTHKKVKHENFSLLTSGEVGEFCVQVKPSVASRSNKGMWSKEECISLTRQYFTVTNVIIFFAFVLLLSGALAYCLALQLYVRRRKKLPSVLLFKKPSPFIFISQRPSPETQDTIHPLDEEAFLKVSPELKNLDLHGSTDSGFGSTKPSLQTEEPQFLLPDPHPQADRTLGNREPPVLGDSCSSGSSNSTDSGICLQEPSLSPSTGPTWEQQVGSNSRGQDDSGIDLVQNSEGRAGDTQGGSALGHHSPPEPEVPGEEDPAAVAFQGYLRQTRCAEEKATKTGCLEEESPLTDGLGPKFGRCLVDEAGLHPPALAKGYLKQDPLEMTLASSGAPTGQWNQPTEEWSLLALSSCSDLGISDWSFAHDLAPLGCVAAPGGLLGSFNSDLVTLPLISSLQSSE
# T1 sequence (looked up) 2: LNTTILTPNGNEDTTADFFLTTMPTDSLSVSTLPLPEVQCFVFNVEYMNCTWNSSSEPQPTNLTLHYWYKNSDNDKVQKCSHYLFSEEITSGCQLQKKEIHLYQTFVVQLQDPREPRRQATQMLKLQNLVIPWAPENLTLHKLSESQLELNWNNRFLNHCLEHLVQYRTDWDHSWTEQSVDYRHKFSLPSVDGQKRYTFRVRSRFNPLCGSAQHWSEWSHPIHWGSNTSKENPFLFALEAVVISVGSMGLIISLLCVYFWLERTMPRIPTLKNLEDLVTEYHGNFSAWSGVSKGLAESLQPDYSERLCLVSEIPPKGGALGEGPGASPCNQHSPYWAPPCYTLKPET
# Method summary: cell-based or functional assay
Observation type: Granzyme B secretion, CD8 T cells, at 0.1 µM (pg/mL)

>>> quantitative_readout("hIL10Ra_VHH14 - hIL2Rg_VHH19, linker …, tag his (bispecific antibody, not shown: small tags and cut ends) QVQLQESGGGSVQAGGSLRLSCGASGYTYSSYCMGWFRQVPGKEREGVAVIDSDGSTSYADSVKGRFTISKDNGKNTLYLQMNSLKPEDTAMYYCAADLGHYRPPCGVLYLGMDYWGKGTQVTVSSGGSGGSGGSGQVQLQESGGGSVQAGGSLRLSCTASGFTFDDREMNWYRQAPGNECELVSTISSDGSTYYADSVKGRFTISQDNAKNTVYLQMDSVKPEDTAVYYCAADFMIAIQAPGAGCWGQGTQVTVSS")
79300
>>> quantitative_readout("hIL10Ra_VHH14 - hIL2Rg_VHH19, linker GGGS, tag Fc (bispecific antibody, not shown: a dimerising Fc or GST) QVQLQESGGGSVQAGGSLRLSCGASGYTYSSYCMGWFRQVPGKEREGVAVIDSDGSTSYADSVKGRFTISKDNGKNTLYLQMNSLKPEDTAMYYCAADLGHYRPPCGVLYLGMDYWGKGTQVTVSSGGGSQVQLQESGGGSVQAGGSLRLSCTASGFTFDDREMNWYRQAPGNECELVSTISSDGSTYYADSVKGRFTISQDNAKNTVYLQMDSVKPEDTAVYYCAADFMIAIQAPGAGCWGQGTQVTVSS")
108000
>>> quantitative_readout("hIL10Ra_VHH14 - hIL2Rg_VHH19, linker GGGSGGGS, tag his (bispecific antibody, not shown: small tags and cut ends) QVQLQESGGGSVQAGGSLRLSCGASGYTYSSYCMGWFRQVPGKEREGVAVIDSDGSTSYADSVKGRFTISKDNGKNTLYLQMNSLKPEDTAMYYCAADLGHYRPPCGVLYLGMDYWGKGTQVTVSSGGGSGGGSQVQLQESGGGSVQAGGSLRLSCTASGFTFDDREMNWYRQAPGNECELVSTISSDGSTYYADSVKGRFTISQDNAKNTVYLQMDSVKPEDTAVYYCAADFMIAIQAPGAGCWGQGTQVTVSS")
62200
>>> quantitative_readout("hIL10Ra_VHH14 - hIL2Rg_VHH19, linker GGGS, tag his (bispecific antibody, not shown: small tags and cut ends) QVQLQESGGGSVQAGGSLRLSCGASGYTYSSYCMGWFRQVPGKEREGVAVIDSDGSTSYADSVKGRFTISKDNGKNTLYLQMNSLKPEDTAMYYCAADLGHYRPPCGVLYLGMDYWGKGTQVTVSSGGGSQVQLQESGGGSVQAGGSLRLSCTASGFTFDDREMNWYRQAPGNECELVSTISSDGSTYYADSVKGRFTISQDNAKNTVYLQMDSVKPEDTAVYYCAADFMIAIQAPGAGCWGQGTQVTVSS")
55300
>>> quantitative_readout("hIL10Ra_VHH14 - hIL2Rg_VHH19, linker GS, tag his (bispecific antibody, not shown: small tags and cut ends) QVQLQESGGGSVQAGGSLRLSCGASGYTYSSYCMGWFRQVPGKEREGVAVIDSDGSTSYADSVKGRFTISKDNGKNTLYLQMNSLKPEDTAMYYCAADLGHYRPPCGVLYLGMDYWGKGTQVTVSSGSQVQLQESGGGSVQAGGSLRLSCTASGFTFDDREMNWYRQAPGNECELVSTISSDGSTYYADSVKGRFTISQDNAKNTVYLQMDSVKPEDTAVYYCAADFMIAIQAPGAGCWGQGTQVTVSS")
58000

Hello, the source for this data is patent US20250163162A1, in case you need it.
